- Test system: nude mice, LOX melanoma ip, survival T/C
- Assay Summary: NCI In Vivo Anticancer Drug Screen. Data for tumor model Human Amelanotic Melanoma (LOX) (intraperitoneal) in NU/NU BALB/C (nude) mice
- Assay Setup: endpoint: median survival time; dose: 150.0 mg/kg/injection; schedule: Q04DX003 (ip); vehicle: water
Inconclusive results and toxic doses are left out. The calls were made as follows: active = survival T/C of 150% or more; inactive = T/C below 125% in these data.
Pick one: active, inactive

Inquiry: What outcome does the record of this test show for COC(=O)NC1C(C)OC(OC2C/C=C(/C)C3C=CC4C(OC5CC(OC6CC(OC7CC(O)C(O)C(C)O7)C(OC7CC(O)C(OC)C(C)O7)C(C)O6)C(O)C(C)O5)C(C)CC(C)C4C3(C)/C(O)=C3\C(=O)OC4(CC(C)C(CO)=CC4/C=C\2C)C3=O)CC1(C)[N+](=O)[O-] (stereo unspecified) ?
Reply text: inactive

Inquiry: What outcome does the record of this test show for O=NNc1ccc2cccnc2n1 ?
Reply text: active

Inquiry: What outcome does the record of this test show for O=C1CN(CCN2CC(=O)N(CN3CCOCC3)C(=O)C2)CC(=O)N1CN1CCOCC1 ?
Reply text: inactive

Inquiry: What outcome does the record of this test show for CC(=O)NO ?
Reply text: inactive

Inquiry: What outcome does the record of this test show for Oc1cccc2ccccc12 ?
Reply text: inactive

Inquiry: What outcome does the record of this test show for [Na+] ?
Reply text: inactive
